Provenance of the data: BindingDB's records for doi:10.1021/jm00126a020

# target_entity: Thromboxane-A synthase (Homo sapiens, UniProt P24557)
# Sequence (P24557 whole entry): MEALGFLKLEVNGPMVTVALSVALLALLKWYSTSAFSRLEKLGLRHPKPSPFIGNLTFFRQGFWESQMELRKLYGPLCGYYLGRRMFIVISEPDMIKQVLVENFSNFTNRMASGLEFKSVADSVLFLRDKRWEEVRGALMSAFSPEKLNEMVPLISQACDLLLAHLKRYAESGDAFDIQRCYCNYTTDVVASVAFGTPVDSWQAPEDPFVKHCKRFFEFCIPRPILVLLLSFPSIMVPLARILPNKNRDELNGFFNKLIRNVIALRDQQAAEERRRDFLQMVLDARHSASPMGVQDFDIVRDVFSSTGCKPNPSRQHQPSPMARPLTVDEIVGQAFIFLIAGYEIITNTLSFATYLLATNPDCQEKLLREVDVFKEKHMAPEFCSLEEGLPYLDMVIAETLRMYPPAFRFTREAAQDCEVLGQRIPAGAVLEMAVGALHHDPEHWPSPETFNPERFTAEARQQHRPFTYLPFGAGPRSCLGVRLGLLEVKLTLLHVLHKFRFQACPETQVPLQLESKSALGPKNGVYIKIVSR
parameter_measured: IC50 (nM)

>>> obs_value("O=C(O)c1cc2c(s1)CCC(Cn1ccnc1)C2 (stereo not given)")
114
>>> obs_value("O=C(O)c1cc2c(s1)CC(Cn1ccnc1)CC2 (stereo not given)")
2680
>>> obs_value("O=C(O)C1=Cc2sc(Cn3ccnc3)cc2CC1")
13
>>> obs_value("O=C(O)C1=Cc2cc(Cn3ccnc3)sc2CC1")
93
